Data provenance is PubChem BioAssay AID1918996.

As shown below, each of these compounds has a reported viability, T/C value.
- Tested on: 349418-098-R-PDC complex spheroid growth
- ASSAY PROCEDURE: Anticancer human tumor 349418-098-R-PDC patient-derived lung adenocarcinoma cell line growth inhibition [AhR]
- CONDITIONS USED: second compound 1 µM; first compound 0.316 µM; hits give low values
Report the value in % with no unit label.

Study these solved cases before continuing.
{"columns": ["COMPOUND", "EXPERIMENTAL RESULT"],
 "data": [
  ["CC(C)c1c(-c2ccccc2)nc2c(C#N)c[nH]n2c1=O + Cc1cncc(-c2nc(NCCc3c[nH]c4ccccc34)c3ncn(C(C)C)c3n2)c1", 83.6],
  ["COc1cc(C2c3cc4c(cc3C(OC3OC5COC(C)OC5C(O)C3O)C3COC(=O)C23)OCO4)cc(OC)c1O (stereo not given) + Cc1ccccc1N=Nc1ccc(NC(=O)c2ccnn2C)c(C)c1", 36.5],
  ["Nc1ncn(C2CC(O)C(CO)O2)c(=O)n1 (stereo not given) + CC(CO)NC(=O)c1cc(-c2ccc(Cl)cc2)nn(-c2cnn(C)c2)c1=O", 43.3],
  ["CC1COCCN1c1cc(-c2ccnn2C)c2ccnc(-c3ccn[nH]3)c2n1 (stereo not given) + CC(CO)NC(=O)c1cc(-c2ccc(Cl)cc2)nn(-c2cnn(C)c2)c1=O", 16.6]
]}

Q: Item under review: Nc1ncn(C2CC(O)C(CO)O2)c(=O)n1 (stereo not given) + Cc1cncc(-c2nc(NCCc3c[nH]c4ccccc34)c3ncn(C(C)C)c3n2)c1 . Reported viability, T/C?
Ans: 50.1

Q: Item under review: COc1ccc([C@@H](O)c2cc(-c3ncnc4cc(N5CCOCC5)ccc34)c(F)cc2Cl)nn1 + Cc1ccccc1N=Nc1ccc(NC(=O)c2ccnn2C)c(C)c1 . Reported viability, T/C?
Ans: 81.6

Q: Item under review: Nc1ccccc1NC(=O)c1ccc(CNC(=O)OCc2cccnc2)cc1 + Cc1ccccc1N=Nc1ccc(NC(=O)c2ccnn2C)c(C)c1 . Reported viability, T/C?
Ans: 87.2

###

As shown below, each of these compounds has a reported viability, T/C value.
- Test system: 349418-098-R-PDC complex spheroid growth
- ASSAY PROCEDURE: Anticancer human tumor 349418-098-R-PDC cell line growth inhibition [AhR];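 further: spheroids also contain HUVEC endothelial cells and human MSC stroma; spheroids exposed to agents for seven days before luminescence viability read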
- CONDITIONS USED: second compound 3.16 µM; first compound 3.16 µM; hits give low values
Report the value in % with no unit label.

{"columns": ["COMPOUND", "EXPERIMENTAL RESULT"],
 "data": [
  ["COc1cc(C2c3cc4c(cc3C(OC3OC5COC(C)OC5C(O)C3O)C3COC(=O)C23)OCO4)cc(OC)c1O (stereo unspecified) + Cc1cncc(-c2nc(NCCc3c[nH]c4ccccc34)c3ncn(C(C)C)c3n2)c1", 7.3]
]}

Q: Item under review: Nc1ccccc1NC(=O)c1ccc(CNC(=O)OCc2cccnc2)cc1 + Cc1ccccc1N=Nc1ccc(NC(=O)c2ccnn2C)c(C)c1 . Reported viability, T/C?
Ans: 18.5

Q: Item under review: CC1(C)CCC(CN2CCN(c3ccc(C(=O)NS(=O)(=O)c4ccc(NCC5CCOCC5)c([N+](=O)[O-])c4)c(Oc4cnc5[nH]ccc5c4)c3)CC2)=C(c2ccc(Cl)cc2)C1 + Cc1ccccc1N=Nc1ccc(NC(=O)c2ccnn2C)c(C)c1 . Reported viability, T/C?
Ans: 52

Q: Item under review: CC1(C)CCC(CN2CCN(c3ccc(C(=O)NS(=O)(=O)c4ccc(NCC5CCOCC5)c([N+](=O)[O-])c4)c(Oc4cnc5[nH]ccc5c4)c3)CC2)=C(c2ccc(Cl)cc2)C1 + CC(CO)NC(=O)c1cc(-c2ccc(Cl)cc2)nn(-c2cnn(C)c2)c1=O . Reported viability, T/C?
Ans: 49

Q: Item under review: COc1ccc([C@@H](O)c2cc(-c3ncnc4cc(N5CCOCC5)ccc34)c(F)cc2Cl)nn1 + CC(CO)NC(=O)c1cc(-c2ccc(Cl)cc2)nn(-c2cnn(C)c2)c1=O . Reported viability, T/C?
Ans: 30

Q: Item under review: CC1COCCN1c1cc(C2(S(C)(=N)=O)CC2)nc(-c2ccnc3[nH]ccc23)n1 (stereo unspecified) + Cc1cncc(-c2nc(NCCc3c[nH]c4ccccc34)c3ncn(C(C)C)c3n2)c1 . Reported viability, T/C?
Ans: 8.67

Q: Item under review: O=C(c1cc(Cc2n[nH]c(=O)c3ccccc23)ccc1F)N1CCN(C(=O)C2CC2)CC1 + Cc1ccccc1N=Nc1ccc(NC(=O)c2ccnn2C)c(C)c1 . Reported viability, T/C?
Ans: 41.3

Q: Item under review: O=C(c1cc(Cc2n[nH]c(=O)c3ccccc23)ccc1F)N1CCN(C(=O)C2CC2)CC1 + Cc1cncc(-c2nc(NCCc3c[nH]c4ccccc34)c3ncn(C(C)C)c3n2)c1 . Reported viability, T/C?
Ans: 15

Q: Item under review: CC1COCCN1c1cc(C2(S(C)(=N)=O)CC2)nc(-c2ccnc3[nH]ccc23)n1 (stereo unspecified) + CC(CO)NC(=O)c1cc(-c2ccc(Cl)cc2)nn(-c2cnn(C)c2)c1=O . Reported viability, T/C?
Ans: 21.4

Q: Item under review: CC(C)c1c(-c2ccccc2)nc2c(C#N)c[nH]n2c1=O + Cc1cncc(-c2nc(NCCc3c[nH]c4ccccc34)c3ncn(C(C)C)c3n2)c1 . Reported viability, T/C?
Ans: 11.3

Q: Item under review: COc1ccc([C@@H](O)c2cc(-c3ncnc4cc(N5CCOCC5)ccc34)c(F)cc2Cl)nn1 + Cc1ccccc1N=Nc1ccc(NC(=O)c2ccnn2C)c(C)c1 . Reported viability, T/C?
Ans: 25.1
